experiment.description: NCI Yeast Anticancer Drug Screen. Data for the mlh1 rad18 strain (AID 175)
reported.conditions: S. cerevisiae mlh1 rad18 strain growth inhibition; at 5.0 µM (retest, dose inferred, filed as 0.5); stronger effect = higher value
Description: Growth inhibition of yeast strains with defined genetic alterations is measured as a screen for potential anti-cancer activity. Selected strains with alterations in DNA damage repair or cell cycle control were exposed to compounds and growth inhibition was measured relative to vehicle treated controls. The strain used in this assay is mlh1 rad18
The panel holds about 79,000 compounds, 15% with a hit somewhere; the sample as a whole holds those more often. Where a SMILES comes first, the peptide text is derived from it. The star is where a group is joined. Fmoc = O=C(OCC1c2ccccc2-c2ccccc21)*; Boc = CC(C)(C)OC(=O)*
metric: growth inhibition (%)
Answers are plain numbers, in %.

| compound | reported.result |
| --- | --- |
| O=P(Nc1ccccc1)(OCc1ccccc1)OCc1ccccc1 | 5 |
| COc1cc(OC)c(C(=O)[O][Sn]([c]2ccccc2)([c]2ccccc2)[c]2ccccc2)cc1OC | 99 |
| CC(C)/C=C1\CCOC1=O | 0 |
| CCn1c2ccccc2c2ccc(C3C(C(=O)OC)=C(C)NC(C)=C3C(=O)OC)cc21 | 1 |
| CC(=O)Oc1ccc(-c2ccc(Br)cc2)cc1 | -7 |

List the reported growth inhibition of each compound below.
1. N#Cc1c(-c2ccc(Cl)c(Cl)c2)c(-c2ccc(Cl)c(Cl)c2)nn(CC(=O)O)c1=O
2. CN(/N=C/C(O)C(O)C(O)CO)c1ccccc1 (centres undefined)
3. CC(C)(C)OC(=O)NCCCCC(NC(=O)OCC1c2ccccc2-c2ccccc21)C(=O)N1CCCC1C(=O)NCC(N)=O (stereo not drawn) (Fmoc-Lys(Boc)-Pro-Gly-NH2; configuration not given here)
4. N[C@@H]1CCCC[C@@H]1N.O=C([O-])CN(CP(=O)([O-])[O-])CP(=O)([O-])[O-].[Pt+2]
5. Cc1c2cnccc2c(C)c2c1c1ccccc1n2Cc1ccccc1

### Response
1. 0
2. 47
3. 19
4. -1
5. -8

List the reported growth inhibition of each compound below.
1. CC(C)/C(Cl)=N/OC(=O)Nc1ccc(OC(F)(F)F)cc1
2. CCOC(=O)Nc1nc2ccc(Cn3cccc3)cc2[nH]1
3. C=C1CC(Cn2cc(Br)c(=O)[nH]c2=O)(c2ccc(Br)cc2)OC1=O (centres undefined)
4. O=C1CSC(=Nc2ccc(F)cc2F)N1Cc1cccs1
5. Fc1ccc(NC(=S)SCc2ccco2)cc1

### Response
1: -7; 2: 25; 3: 40; 4: 47; 5: 1

Data credit: PubChem BioAssay (NCI)
